- study target: L. major dihydrofolate reductase (LmDHFR), recombinant LmDHFR-TS (Leishmania major)
- Construct: made in house
- method summary: LmDHFR-TS enzyme inhibition assay (spectrophotometric, standard DHFR conditions)
- Format: biochemical
- run parameters: pIC50, pIC50 = −log IC50
pIC50: −log10 of the molar value.
Hi there, I'd appreciate the recorded pIC50 for every entry that follows.

[in] Which pIC50 is listed for C=C1CC23CCC4C(C)(C(=O)O)C(OC(=O)C=Cc5ccccc5)CCC4(C)C2(O)CCC1C3 (stereo not drawn) ?
[out] > 5.00

[in] Param item = C=C1CC23CCC4C(C)(C(=O)O)C(OC(=O)C=Cc5ccc(O)cc5)CCC4(C)C2(O)CCC1C3 (stereo not drawn) [structure 301a] ; retrieve measured pIC50.
[out] > 5.00

[in] Can you look up the measured pIC50 of C=C1CC23CCC4C(C)(CCC(OC(=O)C=Cc5ccccc5)C4(C)C(=O)O)C2CCC1C3 (stereo not drawn) for me?
[out] > 5.00

---

- study target: L. major dihydrofolate reductase (LmDHFR), recombinant LmDHFR-TS (Leishmania major, UniProt P07382)
- Construct: made in house
- Sequence (P07382 whole entry): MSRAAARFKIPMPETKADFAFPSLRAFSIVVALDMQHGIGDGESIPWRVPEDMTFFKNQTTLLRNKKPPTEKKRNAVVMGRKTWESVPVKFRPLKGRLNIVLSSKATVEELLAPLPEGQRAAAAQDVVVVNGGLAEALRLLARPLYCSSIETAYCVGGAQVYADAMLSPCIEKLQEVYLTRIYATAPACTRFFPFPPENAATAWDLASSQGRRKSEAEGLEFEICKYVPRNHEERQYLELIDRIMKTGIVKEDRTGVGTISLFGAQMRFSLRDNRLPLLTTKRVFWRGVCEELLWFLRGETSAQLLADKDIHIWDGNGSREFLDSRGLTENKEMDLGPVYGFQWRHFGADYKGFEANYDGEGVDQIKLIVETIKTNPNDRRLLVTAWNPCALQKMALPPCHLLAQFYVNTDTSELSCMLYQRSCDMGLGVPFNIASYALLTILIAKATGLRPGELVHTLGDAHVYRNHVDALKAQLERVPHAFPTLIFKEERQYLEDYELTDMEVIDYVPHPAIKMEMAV
- method summary: LmDHFR-TS enzyme inhibition assay (spectrophotometric, standard DHFR conditions)
- Type: biochemical
measured parameter: pKi
pKi here is simply -log10 of the concentration when that concentration is written in mol/L.

[in] What pKi value was documented for this compound, C=C1CC23CCC4C(C)(C(=O)O)C(OC(=O)C=Cc5ccccc5)CCC4(C)C2(O)CCC1C3 (centres unmarked) [structure 301] ?
[out] 6.03

[in] Which pKi value belongs to C=C1CC23CCC4C(C)(CCC(OC(=O)C=Cc5ccccc5)C4(C)C(=O)O)C2CCC1C3 (centres unmarked) [structure 302] ?
[out] 6.17

[in] # lookup: pKi of C=C1CC23CCC4C(C)(C(=O)OC5C=C(C)C(O)CC5C(C)C)CCCC4(C)C2CCC1C3 (centres unmarked) [structure 135]
[out] 5.92

[in] Form field: reported pKi of CC1(C)OCC2(CC34CCC5C(C)(C)C(=O)CCC5(C)C3CCC2C4)O1 (centres unmarked) [structure 4]
[out] 6.09

[in] Give the measured pKi of C=C1CC23CCC4C(C)(C(=O)O)C(OC(=O)C=Cc5ccc(O)cc5)CCC4(C)C2(O)CCC1C3 (centres unmarked) [structure 301a] .
[out] 6.07

---

Please provide measured IC50 for the entries that follow.
- study target: L. major dihydrofolate reductase (LmDHFR), recombinant LmDHFR-TS (Leishmania major, UniProt P07382)
- Construct: made in house
- method summary: LmDHFR-TS enzyme inhibition assay (spectrophotometric, standard DHFR conditions)
- Assay type: biochemical
- run parameters: IC50, LmDHFR 2.7 nM, NADPH 100 μM, H2F 20 μM, test compounds 0.1–128 μM, triplicate
Unit µM implied. Number only.

[in] Dear colleague, I am looking for the recorded IC50 of the following compound: C=C1CC23CCC4C(C)(C(=O)OC5C=C(C)C(O)CC5C(C)C)CCCC4(C)C2CCC1C3 (centres unmarked)
[out] 11.2

[in] So what's the measured IC50 for this one? C=C1CC23CCC4C(C)(C(=O)O)C(OC(=O)C=Cc5ccccc5)CCC4(C)C2(O)CCC1C3 (centres unmarked)
[out] 8.8

[in] Item under review: C=C1CC23CCC4C(C)(CCC(OC(=O)C=Cc5ccccc5)C4(C)C(=O)O)C2CCC1C3 (centres unmarked) . Reported IC50?
[out] 6.3

[in] Requested read-out: IC50. Entry: C=C1CC23CCC4C(C)(C(=O)O)C(OC(=O)C=Cc5ccc(O)cc5)CCC4(C)C2(O)CCC1C3 (centres unmarked) [structure 301a]
[out] 7.9

[in] Entry CC1(C)OCC2(CC34CCC5C(C)(C)C(=O)CCC5(C)C3CCC2C4)O1 (centres unmarked) : reported IC50 = ?
[out] 7.6

The values you see were collected from paper PMC10135059.
